# Test: Noncompartmental pharmacokinetic parameters (Cmax, Tmax, AUC, Racc) in QD and BID cohorts of Form B
# Assay type: in vivo, human
# Condition Notes: human, plasma, oral, 500 mg, Cohort 4, 500 mg QD of Form B, Day 1; read-out: AUClast, Median
Parameter: AUC(0-t) (ng·h/mL)
One number for each entry, in ng·h/mL.

Query :: Reported AUC(0-t) for "CC(C)N1CCN(c2ccc(Nc3ncc4cc5n(c4n3)C3(CCCCC3)CNC5=O)nc2)CC1" : what is it?
Result :: 611

---

# Test: Plasma concentration versus time of Compound I and metabolite Compound III in patients dosed QD or BID with Form B of Compound II plus fulvestrant
# Assay type: in vivo, human
# Condition Notes: human, plasma, oral, 500 mg, Cohort 4, 500 mg QD of Form B, Day 22; read-out: Trough Compound I Concentration, Max
Parameter: concentration at 22 day (ng/mL)
Give bare numbers, in ng/mL.

Query :: Reported concentration at 22 day for "CC(C)N1CCN(c2ccc(Nc3ncc4cc5n(c4n3)C3(CCCCC3)CNC5=O)nc2)CC1" : what is it?
Result :: 27.3

---

# Test: Plasma concentration versus time of Compound I and metabolite Compound III in patients dosed QD or BID with Form B of Compound II plus fulvestrant
# Format: in vivo, human
# Condition Notes: human, plasma, oral, 200 mg, 200 mg QD of Form B, Day 1, 0.0 h, Mean; read-out: Compound I Concentration
Parameter: concentration at 0 h (µg/mL)
Answers are plain numbers, in µg/mL.

Query :: Reported concentration at 0 h for CC(C)N1CCN(c2ccc(Nc3ncc4cc5n(c4n3)C3(CCCCC3)CNC5=O)nc2)CC1 [Compound I] : what is it?
Result :: 0

---

# Test: Noncompartmental pharmacokinetic parameters (Cmax, Tmax, AUC, Racc) in QD and BID cohorts of Form B
# Format: in vivo, human
# Condition Notes: human, plasma, oral, 100 mg, Compound I; 100 mg BID of Form B; Cohort 6; Day 29; read-out: Tmax (Median)
# Experimental: Analysis of plasma concentration versus time data for calculation of standard pharmacokinetic (PK) parameters following oral administration was conducted using Phoenix WinNonlin version 6.3 using actual blood sampling times. […]
Parameter: Tmax
A complete answer gives the number followed by the unit.

Query :: Reported Tmax for "CC(C)N1CCN(c2ccc(Nc3ncc4cc5n(c4n3)C3(CCCCC3)CNC5=O)nc2)CC1" : what is it?
Result :: 3 h

---

# Test: Plasma concentration versus time of Compound I and metabolite Compound III in patients dosed QD or BID with Form B of Compound II plus fulvestrant
# Format: in vivo, human
# Condition Notes: human, plasma, oral, 100 mg, 100 mg BID of Form B, Day 1, 2.0 h, Mean; read-out: Compound III Concentration
Parameter: concentration at 2 h (ng/mL)
Answers are plain numbers, in ng/mL.

Query :: Reported concentration at 2 h for "O=C1NCC2(CCCCC2)n2c1cc1cnc(Nc3ccc(N4CCNCC4)cn3)nc12" : what is it?
Result :: 1.04

---

# Test: clinical
# Condition Notes: human, in vivo, 500 mg
Parameter: AUC(0-t) (ng·h/mL)
Give bare numbers, in ng·h/mL.

Query :: Reported AUC(0-t) for "CC(C)N1CCN(c2ccc(Nc3ncc4cc5n(c4n3)C3(CCCCC3)CNC5=O)nc2)CC1" : what is it?
Result :: 607
